Biological target: T1, human ROR1 (full-length, on the cell surface) (human, UniProt Q01973 30-937)
T1 construct: whole, on cells; the tumour cell lines carry their own ROR1; also called Ba/F3-ROR1 cells; Jeko-1
T1 sequence (Q01973 30-937): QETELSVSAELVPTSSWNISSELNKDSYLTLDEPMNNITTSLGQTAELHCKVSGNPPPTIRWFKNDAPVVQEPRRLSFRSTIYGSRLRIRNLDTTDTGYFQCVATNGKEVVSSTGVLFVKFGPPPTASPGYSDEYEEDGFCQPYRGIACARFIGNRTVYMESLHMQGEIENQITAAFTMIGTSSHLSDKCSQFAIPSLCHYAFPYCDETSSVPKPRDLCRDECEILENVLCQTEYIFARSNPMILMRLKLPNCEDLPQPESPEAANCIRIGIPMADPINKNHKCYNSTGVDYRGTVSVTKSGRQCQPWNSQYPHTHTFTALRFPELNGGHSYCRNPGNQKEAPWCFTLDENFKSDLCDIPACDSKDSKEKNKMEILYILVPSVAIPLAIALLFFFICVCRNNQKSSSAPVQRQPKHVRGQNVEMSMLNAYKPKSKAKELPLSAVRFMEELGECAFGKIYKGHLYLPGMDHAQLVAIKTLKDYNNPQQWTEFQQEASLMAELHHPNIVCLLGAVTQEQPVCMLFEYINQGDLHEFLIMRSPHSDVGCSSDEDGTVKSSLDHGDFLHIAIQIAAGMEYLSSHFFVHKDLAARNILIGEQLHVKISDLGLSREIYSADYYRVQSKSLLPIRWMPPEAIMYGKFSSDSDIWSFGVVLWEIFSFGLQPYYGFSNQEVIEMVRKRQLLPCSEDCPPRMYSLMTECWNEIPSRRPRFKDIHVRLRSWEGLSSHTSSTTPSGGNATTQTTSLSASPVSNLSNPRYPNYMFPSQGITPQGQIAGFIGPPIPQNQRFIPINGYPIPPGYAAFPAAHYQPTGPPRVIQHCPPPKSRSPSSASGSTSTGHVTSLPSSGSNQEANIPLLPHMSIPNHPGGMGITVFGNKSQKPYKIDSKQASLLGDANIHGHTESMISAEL
Test: flow cytometry, Jeko-1 cells
Listed binders paired with reported pEC50
Please note pEC50 is a logarithmic value: minus log10 of concentration in mol/L. Answer with that number alone.

3D8-HuC84 (antibody, human IgG1, kappa, V domains shown, humanized, human IgG1 / kappa) VH: EVQLVESGGGLVQPGGSLRLSCAASGFTFSSYAMSWVRQAPEKRLEWVSSISSGGSTYYPDSVKGRFTISRDNSKNTLYLQMNSLRAEDTAVYYCARVNYYGYGDYAMDYWGQGTLVTVSS VL: DIQMTQSPSSLSASVGDRVTITCQASQDISNYLTWFQQKPGKSPKTLIHRANRLVTGVPSRFSGSGSGTDFTFTISSLQPEDIATYYCLQYDEFPYTFGGGTKVEIKR	10.22
3D8-Hu27 (antibody, human IgG1, kappa, V domains shown, humanized, human IgG1 / kappa) VH: EVQLVESGGGLVQPGGSLRLSCAASGFTFSSYAMSWVRQAPGKGLEWVASINSGGSTYYPDSVKGRFTISRDNAKNSLYLQMNSLRAEDTAVYYCARVNYYGYGDYAMDYWGQGTLVTVSS VL: DIQMTQSPSSLSASVGDRVTITCQASQDISNYLSWFQQKPGKSPKTLIYRANRLVTGVPSRFSGSGSGTDYTFTISSLQPEDIATYYCLQYDEFPYTFGGGTKLEIKR	10.40
19F6-Hu14 (antibody, human IgG1, kappa, V domains shown, humanized, human IgG1 / kappa) VH: QVQLQESGPGLVKPSETLSLTCTVTGYSITSDYAWNWIRQPPGKGLEWMGYISYSGSIRYKPSLKDRITISRDTSKNQFSLKLSSVTAADTAVYYCARGEITYYFDYWGQGTLVTVSS VL: DIQMTQSPSSLSASVGDRVTITCQTSTDIDDDLNWYQQKPGKPPKLLISEGNTLETGVPSRFSGSGSGTDFTFTISSLQPEDIADYYCLQSNDLPLTFGAGTKLEIKR	9.92

Now examine the next entry.
Ask | Could you tell me which pEC50 is on file for 19F6-Hu35V8 (antibody, human IgG1, kappa, V domains shown, humanized, human IgG1 / kappa) VH: QVQLQESGPGLVKPSQTLSLTCTVSGYSITSDYAWNWIRQFPGKGLEWIGYISYSGSIRYNPSLKSRVTISRDTSKNQFSLKLSSVTAADTAVYYCARGEITYYFDYWGQGTLVTVSS VL: ETTLTQSPAFMSATPGDKVTISCKASTDIDNDMNWYQQKPGKPPKLIISEGNTLRPGIPPRFSSSGYGTDFTFTINNIQSEDAATYYCLQSNDLPLTFGQGTKLEIKR ?
Reply | 9.74
